All values here come from PubChem BioAssay (NCI).

System: SNB-19 CNS
Assay: NCI tumour cell line growth inhibition, 48 h
quantity_name: TGI

# example entries with known answers
>>> obs_value("COc1ccc(C2C3=C(COC3=O)N(CCO)c3cc4c(cc32)CCC4)cc1OC (stereo not drawn)")
"> 50 µM"
>>> obs_value("Cc1cccc(Cc2cnc(NC(=O)/C=C/c3ccco3)s2)c1")
"> 100 µM"

Pending molecule:
Find TGI (SNB-19 CNS) for the entry `CC1(C)CC(=O)C=C(NC(=O)c2ccccc2)C1`
> 100 µM

---

Tested on: RXF 393 renal
Assay: NCI tumour cell line growth inhibition, 48 h
quantity_name: TGI

# example entries with known answers
>>> obs_value("Cc1cc(=O)oc2c(CN(CCCl)CCCl)c(O)ccc12")
"> 100 µM"
>>> obs_value("CCOC(=O)c1sc2[n+](c1C)C(=O)/C(=C/c1ccccc1Cl)S2")
"> 68.1 µM"
>>> obs_value("Cc1cc(S(=O)(=O)Nc2n[nH]c(N)n2)c(S)cc1Cl")
"> 10 µM"

Find TGI (RXF 393 renal) for the entry `O=C(O)CNCc1c2ccccc2nc2ccccc12`
> 78.3 µM

Find TGI (RXF 393 renal) for the entry CCC(C)Cn1c(C)nc2c1C(=O)c1ccccc1C2=O (stereo not given)
> 100 µM

---

Some compounds, each annotated with its measured TGI.
Tested on: SK-MEL-2 melanoma
Assay: NCI tumour cell line growth inhibition, 48 h

>>> obs_value("C[C@@H]1CC[C@H]2C(CN(C)CC3=C(C(F)(F)F)O[C@@H]4O[C@@]5(C)CC[C@H]6[C@H](C)CC[C@@H]3[C@@]46OO5)=C(C(F)(F)F)O[C@@H]3O[C@@]4(C)CC[C@@H]1[C@]32OO4")
"> 80.7 µM"
>>> obs_value("O=c1[nH]c(=O)c2c([nH]1)[nH]c1ccccc12")
"> 100 µM"

Need TGI of `C/C(=C\COc1ccc2ccc(=O)oc2c1)CCC(=O)C(C)(C)O` , thanks.
> 100 µM

Need TGI of `COc1nc2ncc([C@@H](O)[C@H](O)CO)nc2c(=O)[nH]1` , thanks.
> 100 µM

Need TGI of `CCOc1c(Cc2ccccc2)c(=O)n2c3ccccc3n3c(=O)n(C)c(=O)c1c23` , thanks.
> 100 µM

---

Test system: UACC-62 melanoma
Test: NCI tumour cell line growth inhibition, 48 h
quantity_name: TGI (µM)
The response must be a number in µM with no trailing unit.

# example entries with known answers
>>> obs_value("C=C(C)[C@@H]1CC[C@@H]2C(=CC[C@]3(C)C([C@H](C)CC/C=C(/C)C(=O)O)CC[C@@]23C)[C@@]1(C)CCC(=O)O (stereo partly drawn)")
39.4
>>> obs_value("COc1ccc(C(=O)C(CN(C)C)c2ccccc2)cc1 (stereo not drawn)")
8.22
>>> obs_value("COc1ccc2c(c1)/C(=N/OC(C)=O)c1c-2c(Nc2ccc(/C(C)=N/OC(C)=O)cc2)nc2ccccc12")
63.8
>>> obs_value("C=C1C(=O)O[C@H]2[C@H]1CC/C(COC(=O)c1ccc(Br)cc1)=C\\CC[C@@]1(C)O[C@@H]21")
2.94
>>> obs_value("Oc1[nH]c2ccccc2c1N=NC(=S)NCc1ccccn1")
2.6
>>> obs_value("Nc1cc2ccncc2c2ccccc12")
38.7
>>> obs_value("Fc1ccc(-c2ncn(C3CCNCC3)c2-c2ccnc(Oc3ccc(Oc4ccccc4)cc3)n2)cc1")
7.78
>>> obs_value("CCC(C)Cn1c(C)nc2c1C(=O)c1ccccc1C2=O (stereo not drawn)")
27.5

Pending molecule:
Find TGI (UACC-62 melanoma) for the entry CC1C/C(=C\c2ccc(O)c(O)c2)C(=O)/C(=C/c2ccc(O)c(O)c2)C1 (stereo not drawn)
13.6
